# Experimental system: SAP (Homo sapiens)
# Sequence (P02743 20-223): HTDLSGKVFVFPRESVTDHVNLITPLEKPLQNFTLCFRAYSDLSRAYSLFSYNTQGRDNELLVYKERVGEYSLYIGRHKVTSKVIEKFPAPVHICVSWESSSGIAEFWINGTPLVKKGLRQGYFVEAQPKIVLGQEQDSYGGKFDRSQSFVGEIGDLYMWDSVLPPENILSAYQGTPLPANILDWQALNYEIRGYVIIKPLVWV
# Test summary: Inhibition of binding of 125I radiolabelled SAP to influenza virus immobilized in microtitre plates
# Parameters: 5 μl of radiolabelled SAP in TN; from tissue
# Assay context: compound 200 μM; read-out: Percent inhibition of binding of radiolabelled SAP to immobilized influenza virus
Readout label: inhibition at 200 µM (%)
Give the number; % is assumed, so skip it.

Before answering, review these 4 worked examples.
Request: Fill in inhibition at 200 µM for record COc1cccc(OCC(=O)N2CCC[C@@H]2C(=O)O)c1OCC(=O)N1CCC[C@@H]1C(=O)O
Response: 77

Request: Fill in inhibition at 200 µM for record C[C@H](CSSC[C@@H](C)C(=O)N1CCC[C@@H]1C(=O)O)C(=O)N1CCC[C@@H]1C(=O)O
Response: 91

Request: Fill in inhibition at 200 µM for record O=C(O)[C@H]1CCCN1C(=O)COc1ccc(OCC(=O)N2CCC[C@@H]2C(=O)O)cc1
Response: 84

Request: Fill in inhibition at 200 µM for record O=C(O)[C@H]1CCCN1C(=O)Cc1cccc(CC(=O)N2CCC[C@@H]2C(=O)O)c1
Response: 77

More entries:
Request: Fill in inhibition at 200 µM for record O=C(O)[C@H]1CCCN1C(=O)Cc1ccc(CC(=O)N2CCC[C@@H]2C(=O)O)cc1
Response: 89

Request: Fill in inhibition at 200 µM for record O=C(O)[C@H]1CCCN1C(=O)CCCCC(=O)N1CCC[C@@H]1C(=O)O
Response: 96
